Where these numbers come from: the DeepSol protein solubility set

- test-protocol: soluble on expression in E. coli; label from the status in PepcDB or PDB records

# seq-text, soluble on expression in E. coli
data = [
    ("KNFNPPTRRNWESNYFGMPLQDLVTAEKPIPLFVEKCVEFIEDTGLCTEGLYRVSGNKTDQDNIQKQFDQDHNINLVSMEVTVNAVAGALKAFFADLPDPLIPYSLHPELLEAAKIPDKTERLHALKEIVKKFHPVNYDVFRYVITHLNRVSQQHKINLMTADNLSICFWPTLMRPDFENREFLSTTKIHQSVVETFIQQCQFFFYNGEIVE", "soluble"),
    ("SRTLQFTKMATDHSGAGNLMDCWNAGLELKSCTDEIVKFFLSQTGTSEPPVKGGIDKDCCGAIGLVVKDCWSVMFTSLGLTTMEGNNLREYCEFQAEKSELSPSPAPETLALSPVEITYPGLDY", "soluble"),
    ("MPSCDPGPAPACLPTKTFRSYLPRCHRTYSCVHCRAHLAKHDELISKSFQGSHGRAYLFNSVVNVGCGPAEQRLLLTGLHSVADIFCESCKTTLGWKYEQAFETSQKYKEGKYIIEMSHMVKDNGWD", "soluble"),
]

====

- test-protocol: soluble on expression in E. coli; label from the status in PepcDB or PDB records
measured-parameter: soluble on expression in E. coli

Worked cases, answers included:
# seq-text, soluble on expression in E. coli
records = [
    ("MANHKPEIVITYCTQCQWLLRAAWLAQELLSTFADDLGRVALEPGTGGIFRITCNGVQIWERKADGGFPEAKVLKQRVRDQVDPQRDLGHNDRLEHHHHHH", "soluble"),
    ("MAHHHHHHMCAALSPAHFQLRVKILSEAAKHVPETGFTNAALAASLKSIGVEDITDRTLSQIFNRGFPIALVEHIVKSTNLHVQRELESVFSKDAIIKSIDSNVDAFVQNRLLLPTEKNVVEKAILSKLELLIPLAEHWPSAVALEYLPANLPYTVMNLAEFVDTTVYYMERATTLGELLDPARRILRSKAMASRIRSGEVDSNGASPTSEFLKSFLKGISLSSGPYAGPSALNLGWYCKRAQVAIVYGAVTTSLLGDVSQNAADTRSLTKAAVETVF", "not soluble"),
    ("GSATASDSTRRVSVRDKLLVKEVAELEANLPCTCKVHFPDPNKLHCFQLTVTPDEGYYQGGKFQFETEVPDAYNMVPPKVKCLTKIWHPNITETGEICLSLLREHSIDGTGWAPTRTLKDVVWGLNSLFTDLLNFDDPLNIEAAEHHLRDKEDFRNKVDDYIKRYAR", "soluble"),
    ("MELLCPAGNLASLKSALQAGADAVYLGLKDDTNARSFAGLNFTPAKLQEAAELTHQRGKKIFLTLNTFPKPNEEHRWYQAIDLAAKIGVDALIVADLSLLDYAHRQYPHIPLHLSVQASATNLGALSFYKEAFNVSRVVLPRVLSMKQVRDLAKVSPVDLEVFAFGSLCIMAEGRCHLSSYVTGQSPNTGGSCSPAKHVRWQEQGQDRLTWLNEVLIDKSGLDEQMGYPVVCKGRYLTQEDDKPQYLLESPTSLNTLSLLPELAKAGIVSLKIEGRQRSPAYVEQVTKVWRQAIDTYLNHPDKFQTQAHWEQALAKVSEGQITTLGAYERNWQ", "not soluble"),
    ("MGSDKIHHHHHHMAFKQRREYLFLYTVKDANPNGDPLNENHPRYDGDTAQAMASDVRVKRTTRDEWVRSGEIVFVDGEPKSLKTRFEELKKITGKSDAREIMKQCLDVRLFGVTFALGKEAFAWTGPVQFKWGRSLHSASFEFVQGTAAFATERGGADNRQRSFRNEYLVPFALMGVYAIANQYASQYTDAADEDLQRMLDGLWQGTDNLITRSKNEHKSRLLIEITYKEDFNGKIGALDDKVTLLDREGKVMDREKQKALRSLQEVSLDIGALLKSMELKQEQIAGIRVITDGEINIIQEEQLKGISSIEVR", "not soluble"),
]

Exercise: Output soluble on expression in E. coli of "EGSENLFITGDNLEALKLLQESYLGKIDMIYIDPPYNTGKDFVYQDNFKKTKKENDLSEGILDEEGDRLVKNEKSNGRYHSDWLTMIYPRLKLARNLLSDSGIIFVSIDENEIANLELLLTEIFGENNLAGTIVWDKRNPKGDSKGVSMQHEYIVAAAKNINIFSEFKEFKRPKKNAEIIL"
Key: not soluble
